Target: UniProtKB Q99500
Sequence (Q99500 whole entry): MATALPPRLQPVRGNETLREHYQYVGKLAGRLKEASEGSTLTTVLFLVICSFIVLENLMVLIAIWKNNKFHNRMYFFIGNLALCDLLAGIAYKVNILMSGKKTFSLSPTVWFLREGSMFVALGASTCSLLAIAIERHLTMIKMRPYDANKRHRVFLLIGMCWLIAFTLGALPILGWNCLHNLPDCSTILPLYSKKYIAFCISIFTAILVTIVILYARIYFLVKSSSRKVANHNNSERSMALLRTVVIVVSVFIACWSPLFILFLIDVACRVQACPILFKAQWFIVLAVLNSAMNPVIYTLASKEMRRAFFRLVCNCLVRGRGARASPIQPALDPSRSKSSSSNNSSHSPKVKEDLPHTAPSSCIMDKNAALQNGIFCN
Assay: S1P receptor profiling, GTP[γ-35S] binding SPA, S1P3
Conditions: GTP[γ-35S] binding to membranes of transfected CHO or RH7777 cells
Protocol: Sphingosine-1-phosphate (S1P) Receptor Profiling Agonist activities of compounds are tested on the human S1P receptors EDG-1 (S1P1), EDG-3 (S1P3), EDG-5 (S1P2), EDG-6 (S1P4) and EDG-8 (S1P5). […] The assay technology used is SPA (scintillation proximity based assay). […] Luminescence of SPA beads triggered by membrane bound GTP [γ-^35S] is quantified with a TOPcount plate reader (Packard). EC50s are calculated using standard curve fitting software. […]
pEC50: −log10 of the molar value.
Reported values of pEC50 for individual entries

[
  {
    "Compound string": "CCCOc1ccc2cc(CC[C@@](C)(N)COP(=O)(O)O)ccc2c1",
    "Inequality sign": "=",
    "pEC50": 7.33
  },
  {
    "Compound string": "C[C@@](N)(CCc1ccc2oc(-c3ccccc3)cc2c1)COP(=O)(O)O",
    "Inequality sign": "=",
    "pEC50": 5.93
  },
  {
    "Compound string": "CCCCCOc1ccc2cc(CC[C@@](C)(N)COP(=O)(O)O)ccc2c1",
    "Inequality sign": "=",
    "pEC50": 8.08
  },
  {
    "Compound string": "C[C@@](N)(CCc1ccc2cc(OCCCC(F)(F)C(F)(F)F)ccc2c1)COP(=O)(O)O",
    "Inequality sign": "=",
    "pEC50": 8.24
  },
  {
    "Compound string": "CCCCCc1nc2cc(CC[C@@](C)(N)COP(=O)(O)O)ccc2o1",
    "Inequality sign": "<",
    "pEC50": 6.00
  }
]

Data origin: patent US7825260B2
